Reference for the values: PubChem BioAssay (NCI)

// reported growth per item
# System: NCI-H522 lung
# assay notes: NCI-60 one-dose screen, 48 h (100 = growth as untreated, 0 = no growth, -100 = all killed)
# assay context: 10 µM
This is part of a sample that, as a whole, favours compounds with a hit. Of some 83,000 tested, about 20% had one in any assay.
Field format: number, assumed %, no unit text.

Recorded growth, per entry:
> print(dat)
                                   molecule  output.unit    val
1  COc1cc(Cl)cc(-c2nn(-c3cccc(NC(=O)Nc4cc(C(F)(F)F)cc(C(F)(F)F)c4)c3)cc2-c2ccncc2)c1            %  -15.6
2  O=[N+]([O-])c1ccc(Oc2cccnc2)c([N+](=O)[O-])c1            %   36.3
3  COc1cc(-c2cc(C(=O)N3CCN(C(=O)c4ccccc4NCc4cccs4)CC3)nc3cc(-c4ccccc4)nn23)cc(OC)c1OC            %   18.6
4          NC(=S)N=Nc1c(O)c2ccccc2c2ccccc12            %   44.8
5  COc1cc2c(cc1OC)N(CCO)C1=C(C(=O)OC1)C2c1ccc(Cl)c(Cl)c1 (stereo not drawn)            %   77.4
6  CCN1CCCC1CNC(=O)c1ncc(-c2ccc(C(F)(F)F)cc2)c(NC2CCCCCC2)n1 (stereo not drawn)            %   69.1
7  COc1ccc(-c2nn(-c3cccc(NC(=O)Nc4ccc(Cl)c(C(F)(F)F)c4)c3)cc2-c2ccncc2)cc1Cl            %  -8.34
8  CC(C)=NNc1ncnc2c1ncn2C1OC(CO)C(O)C1O (stereo not drawn)            %   14.8

Item under review: CC1CC(=O)OC(C)C1 (stereo not drawn) . Reported growth?
103

Consider next the molecule O=C1OCC2=C1C(c1ccc(Cl)c(Cl)c1)c1cc3c(cc1N2CCO)OCCO3 (stereo not drawn) in the same way.
-26.7

Field entry: COc1cc(CNc2ccccc2C(=O)N2CCN(C(=O)c3cc(-c4cc(OC)c(OC)c(OC)c4)n4nc(-c5ccccc5)cc4n3)CC2)cc(OC)c1OC
7.02

Same question, Cc1ccc(Nc2nnc(-c3cc(-c4ccncc4)n(-c4ccccc4)n3)s2)cc1 this time
84.5

Now this one: Cn1c(C(N)=O)cc2c1-c1nc(Nc3ccccc3)ncc1CCC2
33.5

###

# Test system: DU-145 prostate
# assay notes: NCI-60 one-dose screen, 48 h (100 = growth as untreated, 0 = no growth, -100 = all killed)
# assay context: 10 µM
This is part of a sample that, as a whole, favours compounds with a hit. Of some 83,000 tested, about 20% had one in any assay.
Please note: growth exactly at 80% is false. Only values below 80% get true.

compound	label
CC(=O)OCc1cc(-c2nc3ccccc3[nH]c2=O)nn1-c1ccc(Cl)cc1	false
CCN(CC)CCSCCCNc1c2ccc(Cl)cc2nc2ccc(OC)cc12	true
CCCCCCCCCCCCCCCC(=O)OC1[C@@H](OC(=O)CCCCCCCCCCCCCCC)[C@@H](C(=O)N[C@@H](CCCCN)C(=O)OC)O[C@H]1n1cnc2c(=O)[nH]c(NC(=O)C(C)C)nc21 (stereo not given in full)	false
N=C(N)c1ccc(-c2ccc(-c3ccccc3)o2)nc1	false
O=C(CNC(=O)OCc1ccccc1)NCC(=O)Oc1ccc([N+](=O)[O-])cc1	false

Record O=C1/C(=C/c2ccc([N+](=O)[O-])s2)Oc2ccccc21 : is its growth strictly below 80%?
true

Query O=c1cc(-c2ccccc2)[nH]n1-c1nc2ccccc2[nH]1 next
true

Quick one: O=C(/C(=C/c1ccccc1)CN1CCCCC1)c1ccccc1
true

Param item: Cc1cc(N(CCCNc2ccnc3cc(Cl)ccc23)Cc2ccc3c(c2)OCO3)nc(N2CCOCC2)n1
true

###

Property: growth; scope: individual compounds
# Tested on: SR leukemia
# assay notes: NCI-60 one-dose screen, 48 h (100 = growth as untreated, 0 = no growth, -100 = all killed)
# assay context: 10 µM
This is part of a sample that, as a whole, favours compounds with a hit. Of some 83,000 tested, about 20% had one in any assay.
Supply the numeric figure in %, leaving out any unit text.

> print(dat)
                                   compound  output.unit    val
1              COc1ccccc1/C=C/C(=O)c1ccccc1            %   10.5
2  Cc1cccc2c(NCCN(C)C)c3cccc(C(=O)NCCN(C)C)c3nc12            %  -14.7
3  CC(C)N(CCNc1nc(C(Cl)(Cl)Cl)nc2cc(Cl)ccc12)C(C)C            %  -28.4
4  O=C(Nc1ccncc1)C(=O)c1cn(S(=O)(=O)c2cccc(Cl)c2)c2ccccc12            %     12
5  Cn1c([N+](=O)[O-])cnc1/C=C1\Oc2cc(Cl)ccc2C1=O            %   8.29

Given N=C(N)c1ccc(-c2ccc(-c3ccco3)o2)cc1 , state its recorded growth.
-17.8

Quick one: O=C(O)c1ccc(P(=O)(O)O)c([N+](=O)[O-])c1
87.7

Likewise for O=C1/C(=C/c2ccc(Cl)cc2)SC(=Nc2ccc(Cl)cc2)N1Cc1nc2ccccc2[nH]1 ?
46.6

###

# Tested on: SK-OV-3 ovarian
# assay notes: NCI-60 one-dose screen, 48 h (100 = growth as untreated, 0 = no growth, -100 = all killed)
# assay context: 10 µM
About 83,000 compounds went through this panel and 20% of them were active in at least one assay; those are over-represented in the sample as a whole.
Please note: 1 applies when growth is 90% or greater, and 0 applies otherwise.

Example entries begin here.
> print(dat)
                                   compound  label
1  Cc1nc2oc3ccccc3c(=O)c2cc1C(=O)NCc1ccccc1      1
2  CN(C)CCN=c1nc2c(c(N)n1-c1ccccc1)c(=S)n(-c1ccccc1)c(=S)n2-c1ccccc1      0
3  Cn1c(N)c(N=Nc2ccc(S(=O)(=O)Nc3nccs3)cc2)c(=O)n(C)c1=O      1

Decide: is the reported value of growth for COc1cc(-c2cc(/C=C/C(=O)c3ccc(N)cc3)[nH]n2)cc(OC)c1OC equal to or greater than 90%?
0

###

Reported values of growth for individual entries
# Tested on: OVCAR-5 ovarian
# assay notes: NCI-60 one-dose screen, 48 h (100 = growth as untreated, 0 = no growth, -100 = all killed)
# assay context: 10 µM
# Method: Growth inhibition of the OVCAR-5 human tumor cell line is measured as a screen for anti-cancer activity. Cells are grown in 96 well plates and exposed to the test compound for 48 hours. Compounds are tested at a single concentration, which is 10^-5 M for most compounds. The reported endpoint is percent growth (GI% or GIPRCNT), where numbers from 0 - 100% represent growth inhibition, and numbers from -100% - 0 represent cell death. For example, a value of 40 represents 60% growth inhibition. […]
The panel holds about 83,000 compounds, 20% with a hit somewhere; the sample as a whole holds those more often.
Your answer should be a plain number; it is taken to be in %.

Record excerpt, results attached:
> print(dat)
                                   molecule   val
1    S=C1SCC(c2ccccc2)S1 (stereo not given)   106
2     CN(C)c1ccc(Cc2ccc(N(C)C)cc2Cl)c(Cl)c1  99.6
3  COc1ccc(-c2cc(/C=C/C(=O)c3cc(OC)c(OC)c(OC)c3)[nH]n2)cc1OC  17.5
4  COc1ccc(C2=NN(C(=O)c3ccc(S(C)(=O)=O)cc3)C(c3ccc(OC)c(OC)c3)C2)c(OC)c1 (stereo not given)   107
5  Cn1c([N+](=O)[O-])cnc1/C=C1\Oc2cc(Cl)ccc2C1=O  29.1

# query: growth | item COc1ccc(-c2nn(-c3cccc(NC(=O)c4cccc(C(F)(F)F)c4)c3)cc2-c2ccncc2)cc1Cl | system: OVCAR-5 ovarian
55.8

Also need CC1(C)N=C(N)N=C(N)N1c1ccc(CCc2ccccc2)c(Cl)c1 , thanks.
36.3

Now consider O=C1C(c2ccccc2)C2C=CC(C2)N1O (stereo not given) .
119

Cc1cccc(NC2=C(C#N)C(=O)NC3(CCCC3)S2)c1 , same question.
103

Field entry: COc1ccc(-c2nn(-c3cccc(NC(=O)c4cc(C(F)(F)F)cc(C(F)(F)F)c4)c3)cc2-c2ccncc2)cc1Cl
87.4

###

# Tested on: SF-295 CNS
# assay notes: NCI-60 one-dose screen, 48 h (100 = growth as untreated, 0 = no growth, -100 = all killed)
# assay context: 10 µM
This is part of a sample that, as a whole, favours compounds with a hit. Of some 83,000 tested, about 20% had one in any assay.
Lab note: anything with growth below 70% is marked Yes; values at 70% or higher are marked No.

> print(dat)
                                   molecule  label
1  COc1ccc(C2CC(c3ccc(N(C)C)cc3)=NN2c2ccc(S(N)(=O)=O)cc2)cc1 (stereo not given)    Yes

Please let me know if O=c1oc2cc(OS(=O)(=O)c3ccccc3)ccc2c2c1CCCCC2 shows growth below 70%.
Yes

Also Nc1ccc2cc(S(=O)(=O)O)cc(O)c2c1N=Nc1ccc(F)cc1 ?
No

Next up: Cc1cc(C)c(NC(=O)c2sc3nc4c(cc3c2N)C(=O)CCC4)c(C)c1
Yes

Next up: COc1cc(NC(=O)CCSc2nc3ccc(Cl)cc3c(=O)n2Cc2ccccc2)cc(OC)c1OC
Yes
